# protocol notes: Rapid solubility test of pure reference compounds in 7 solvents
# test parameters: solvent CH2Cl2/MeOH (4:1, v/v); room temperature (21–23 °C)
reported metric: Solubility in CH2Cl2/MeOH (4:1) (µg/mL)
Express it in µg/mL; write the number only.

Q: Need Solubility in CH2Cl2/MeOH (4:1), item NC(=O)c1cccnc1 [Nicotinamide]
Result: 37300

Q: Need Solubility in CH2Cl2/MeOH (4:1), item C[C@@H]1O[C@@H](OC[C@H]2O[C@@H](Oc3c(-c4ccc(O)c(O)c4)oc4cc(O)cc(O)c4c3=O)[C@H](O)[C@@H](O)[C@@H]2O)[C@H](O)[C@H](O)[C@H]1O [Rutin]
Result: 3820

Q: Need Solubility in CH2Cl2/MeOH (4:1), item CC(C)=CCC/C(C)=C/CC/C(C)=C/CC/C(C)=C/CC/C(C)=C/CC/C(C)=C/CC/C(C)=C/CC/C(C)=C/CC/C(C)=C/CO [Solanesol]
Result: 203000

Q: Need Solubility in CH2Cl2/MeOH (4:1), item CC1=C(/C=C/C(C)=C/C=C/C(C)=C/C=C/C=C(C)/C=C/C=C(C)/C=C/C2=C(C)C[C@@H](O)CC2(C)C)C(C)(C)C[C@H](O)C1 [Zeaxanthin]
Result: 490

Q: Need Solubility in CH2Cl2/MeOH (4:1), item CC1=C[C@H](O)CC(C)(C)[C@H]1/C=C/C(C)=C/C=C/C(C)=C/C=C/C=C(C)/C=C/C=C(C)/C=C/C1=C(C)C[C@@H](O)CC1(C)C [Lutein]
Result: 4660

###

Record form. Attribute: solubility. Fill in for each entry.
# protocol notes: Rapid solubility test of pure reference compounds in 7 solvents
# test parameters: MeOH/H2O (7:3, v/v), 22 °C, organic solvent or mixture, thermodynamic from solid, Solubility in MeOH/H2O (7:3), solvent MeOH/H2O (7:3, v/v); room temperature (21–23 °C)
Express it in mg/mL; write the number only.

Q: Need solubility, item C[C@@H]1O[C@@H](OC[C@H]2O[C@@H](Oc3c(-c4ccc(O)c(O)c4)oc4cc(O)cc(O)c4c3=O)[C@H](O)[C@@H](O)[C@@H]2O)[C@H](O)[C@H](O)[C@H]1O
Result: 0.52

Q: Need solubility, item CN1C(=O)CC[C@H]1c1cccnc1
Result: 139

Q: Need solubility, item C=CC(C)(O)CCC=C(C)C (centres unmarked)
Result: 77.3

Q: Need solubility, item C=C[C@](C)(O)CC[C@@H]1[C@@]2(C)CCCC(C)(C)[C@@H]2CC[C@@]1(C)O
Result: 3.17

Q: Need solubility, item CC(C)=CCC/C(C)=C/CC/C(C)=C/CO
Result: 0.75

###

# protocol notes: Rapid solubility test of pure reference compounds in 7 solvents
# test parameters: methanol, 22 °C, organic solvent or mixture, thermodynamic from solid, Solubility in MeOH, solvent methanol; room temperature (21–23 °C)
reported metric: solubility (mg/mL)
Express it in mg/mL; write the number only.

Q: Need solubility, item C[C@@H]1O[C@@H](OC[C@H]2O[C@@H](Oc3c(-c4ccc(O)c(O)c4)oc4cc(O)cc(O)c4c3=O)[C@H](O)[C@@H](O)[C@@H]2O)[C@H](O)[C@H](O)[C@H]1O
Result: 49

Q: Need solubility, item C=C[C@](C)(O)CC[C@@H]1[C@@]2(C)CCCC(C)(C)[C@@H]2CC[C@@]1(C)O
Result: 65.7

Q: Need solubility, item CC(C)=CCC/C(C)=C/CC/C(C)=C/CO
Result: 466

Q: Need solubility, item O=C(O)c1cccnc1
Result: 6.71

Q: Need solubility, item CN1C(=O)CC[C@H]1c1cccnc1
Result: 235

Q: Need solubility, item NC(=O)c1cccnc1 [Nicotinamide]
Result: 66.3

Q: Need solubility, item C=CC(C)(O)CCC=C(C)C (stereo not shown)
Result: 462

###

# protocol notes: Rapid solubility test of pure reference compounds in 7 solvents
# test parameters: dichloromethane (CH2Cl2), 22 °C, organic solvent or mixture, thermodynamic from solid, Solubility in CH2Cl2, solvent dichloromethane (CH2Cl2); room temperature (21–23 °C)
Record form. Attribute: solubility. Fill in for each entry.
Express it in mg/mL; write the number only.

Q: Need solubility, item CC(C)=CCC/C(C)=C/CC/C(C)=C/CO
Result: 382

Q: Need solubility, item C=CC(C)(O)CCC=C(C)C (centres unmarked)
Result: 440

Q: Need solubility, item CN1C(=O)CC[C@H]1c1cccnc1
Result: 203

Q: Need solubility, item C=C[C@](C)(O)CC[C@@H]1[C@@]2(C)CCCC(C)(C)[C@@H]2CC[C@@]1(C)O
Result: 58

###

# protocol notes: Rapid solubility test of pure reference compounds in 7 solvents
# test parameters: water, 22 °C, thermodynamic from solid, Solubility in H2O, solvent water; room temperature (21–23 °C)
reported metric: solubility (µg/mL)
Express it in µg/mL; write the number only.

Q: Need solubility, item CN1C(=O)CC[C@H]1c1cccnc1 [Cotinine]
Result: 145000

Q: Need solubility, item C=CC(C)(O)CCC=C(C)C (stereo not shown) [Linalool]
Result: 570

Q: Need solubility, item NC(=O)c1cccnc1 [Nicotinamide]
Result: 150000

Q: Need solubility, item O=C(O)c1cccnc1 [Nicotinic acid]
Result: 3100

###

# protocol notes: physchem
# test parameters: 22 °C, organic solvent or mixture, thermodynamic from solid, Solubility in MeOH/H2O (7:3), solvent MeOH/H2O (7:3, v/v); room temperature (21–23 °C)
reported metric: solubility (mg/mL)
Express it in mg/mL; write the number only.

Q: Need solubility, item c1cncc([C@@H]2CCCN2)c1
Result: 418

Q: Need solubility, item NC(=O)c1cccnc1 [Nicotinamide]
Result: 114

Q: Need solubility, item c1cncc(C2=NCCC2)c1
Result: 231

Q: Need solubility, item C1=CCC(c2cccnc2)NC1 (centres unmarked)
Result: 193

###

# protocol notes: physchem
# test parameters: 22 °C, organic solvent or mixture, thermodynamic from solid, Solubility in C6H14, solvent hexane (C6H14); room temperature (21–23 °C); 2 mg compound, solvent added until dissolution or 10.0 mL
reported metric: solubility (mg/mL)
Express it in mg/mL; write the number only.

Q: Need solubility, item C1=CCC(c2cccnc2)NC1 (stereo not shown) [Anatabine]
Result: 217

Q: Need solubility, item c1cncc([C@@H]2CCCN2)c1 [Nornicotine]
Result: 358

Q: Need solubility, item CC(C)=CCC/C(C)=C/CC/C(C)=C/CC/C=C(\C)CC/C=C(\C)CCC=C(C)C [Squalene]
Result: 446

Q: Need solubility, item c1cncc(C2=NCCC2)c1 [Myosmine]
Result: 4.27

Q: Need solubility, item CCCCC/C=C\C/C=C\CCCCCCCC(=O)O [Linoleic acid]
Result: 374

###

# protocol notes: physchem
# test parameters: 22 °C, organic solvent or mixture, thermodynamic from solid, Solubility in CH2Cl2/MeOH (4:1), solvent CH2Cl2/MeOH (4:1, v/v); room temperature (21–23 °C)
Record form. Attribute: solubility. Fill in for each entry.
Express it in mg/mL; write the number only.

Q: Need solubility, item C1=CCC(c2cccnc2)NC1 (centres unmarked)
Result: 512

Q: Need solubility, item CCCCC/C=C\C/C=C\CCCCCCCC(=O)O
Result: 502

Q: Need solubility, item CC(C)=CCC/C(C)=C/CC/C(C)=C/CC/C=C(\C)CC/C=C(\C)CCC=C(C)C
Result: 472

Q: Need solubility, item c1cncc([C@@H]2CCCN2)c1
Result: 412

Q: Need solubility, item c1cncc(C2=NCCC2)c1
Result: 175

###

# protocol notes: Rapid solubility test of pure reference compounds in 7 solvents
# test parameters: hexane (C6H14), 22 °C, organic solvent or mixture, thermodynamic from solid, Solubility in C6H14, solvent hexane (C6H14); room temperature (21–23 °C); 2 mg compound, solvent added until dissolution or 10.0 mL
Record form. Attribute: solubility. Fill in for each entry.
Express it in µg/mL; write the number only.

Q: Need solubility, item CC(C)=CCC/C(C)=C/CC/C(C)=C/CO [Farnesol]
Result: 400000

Q: Need solubility, item C=C[C@](C)(O)CC[C@@H]1[C@@]2(C)CCCC(C)(C)[C@@H]2CC[C@@]1(C)O [Sclareol]
Result: 3760

Q: Need solubility, item C=CC(C)(O)CCC=C(C)C (stereo not drawn) [Linalool]
Result: 422000

###

Record form. Attribute: solubility. Fill in for each entry.
# protocol notes: physchem
# test parameters: 22 °C, organic solvent or mixture, thermodynamic from solid, Solubility in EtOH
Express it in mg/mL; write the number only.

Q: Need solubility, item C/C(=C\CNc1ncnc2[nH]cnc12)CO
Result: 0.56

Q: Need solubility, item O=C(O)c1cccnc1
Result: 3.51

Q: Need solubility, item C=C1CC[C@H](O)C/C1=C/C=C1\CCC[C@]2(C)[C@@H]([C@H](C)CCCC(C)C)CC[C@@H]12
Result: 74.3

Q: Need solubility, item c1cncc([C@@H]2CCCCN2)c1
Result: 97
